Assay: qHTS Assay for Enhancers of SMN2 Splice Variant Expression; also: nearly all actives have a fitted effect of over 55% in size
Details: HEK293 SMN2-luciferase splicing reporter, luminescence, 30-36 h; series mostly up to 46.1 µM
Among all 210,000 compounds or so, about 5,900 (2.8%) were called active. Not shown: some 5% with an inconclusive outcome. Calls follow the shape of the dose curve; as a rule, active = well fitted activation curve with a large enough effect; inconclusive = small, poorly fitted or top-dose-only effect; inactive = no such curve, though single readings can be large or run the other way. For the sample, actives were picked, then their nearest neighbours and some compounds at random.
Classes used: Yes for active, No for inactive

[
  {
    "MOLECULE": "CC(=O)c1cccc(NC(=O)N2CCCC2C(=O)NCCc2ccccc2)c1 (centres undefined)",
    "CLASS NAME": "No"
  },
  {
    "MOLECULE": "CC(C)=C(NC(=O)c1ccccc1)C(=O)N/N=C(\\C)c1ccccc1O",
    "CLASS NAME": "No"
  },
  {
    "MOLECULE": "CCOC(=O)C1CCCN(C(=O)Cn2ncc3c(C)n(Cc4ccc(F)cc4)c(C)c3c2=O)C1 (centres undefined)",
    "CLASS NAME": "No"
  },
  {
    "MOLECULE": "COc1ccc(OC)c(NC(=O)C2CCN(S(=O)(=O)c3ccc(C)cc3)CC2)c1",
    "CLASS NAME": "No"
  },
  {
    "MOLECULE": "O=C(NC(=O)N1CCOCC1)c1ccccc1",
    "CLASS NAME": "No"
  },
  {
    "MOLECULE": "C/C(=N/NC(=O)c1ccc(NC(=O)c2ccc(F)cc2)cc1)c1ccccc1",
    "CLASS NAME": "No"
  },
  {
    "MOLECULE": "CC1CCCN(c2ccc(C(=O)NCCc3ccccc3)cn2)C1 (centres undefined)",
    "CLASS NAME": "Yes"
  },
  {
    "MOLECULE": "CC1CCN(S(=O)(=O)c2ccc3c(c2)N(CC(=O)NCc2ccccc2Cl)C(=O)CO3)CC1",
    "CLASS NAME": "No"
  },
  {
    "MOLECULE": "COc1ccc(C)cc1N(CC(=O)N1CCC(C)CC1)S(=O)(=O)c1ccc(C)cc1",
    "CLASS NAME": "No"
  },
  {
    "MOLECULE": "Oc1ccccc1-c1nc2ccc(Cl)cn2c1Nc1ccc2c(c1)OCCO2",
    "CLASS NAME": "No"
  },
  {
    "MOLECULE": "Cc1ccc(NC(=O)Nc2ccccc2)c(Br)c1",
    "CLASS NAME": "Yes"
  },
  {
    "MOLECULE": "NC(=NC(=O)c1ccccc1)N1CCOCC1",
    "CLASS NAME": "No"
  },
  {
    "MOLECULE": "FC(F)(F)c1cnc(Oc2ccccc2-c2nnc(-c3ccc(Cl)cc3)o2)c(Cl)c1",
    "CLASS NAME": "No"
  },
  {
    "MOLECULE": "CC(=O)Nc1ccc(NC(=O)CSc2nnc3c4cc(Br)ccc4n(C)c3n2)cc1",
    "CLASS NAME": "No"
  },
  {
    "MOLECULE": "CC(=O)c1cccc(NC(=O)Nc2ccc(C)cc2)c1",
    "CLASS NAME": "No"
  },
  {
    "MOLECULE": "CCCn1c(=N)n(CC(O)COc2ccccc2OC)c2ccccc21 (centres undefined)",
    "CLASS NAME": "No"
  },
  {
    "MOLECULE": "Cc1ccccc1Nc1nc(N)nc(CN2CCN(c3ccccn3)CC2)n1",
    "CLASS NAME": "No"
  },
  {
    "MOLECULE": "Cc1c(NS(=O)(=O)c2ccc(Cl)cc2)c(=O)n(-c2ccccc2)n1C",
    "CLASS NAME": "No"
  },
  {
    "MOLECULE": "CCOc1ccc(NC(=O)CC2C(=O)N(c3cccc(OC)c3)C(=O)N2C2CCCCC2)cc1 (centres undefined)",
    "CLASS NAME": "No"
  },
  {
    "MOLECULE": "CC(C)Cn1c(-c2ccc(S(=O)(=O)N3CCOCC3)cc2)csc1=Nc1cc(Cl)ccc1Cl",
    "CLASS NAME": "No"
  },
  {
    "MOLECULE": "Cc1ccc(NC(=S)NCc2ccccc2Cl)c(C)c1",
    "CLASS NAME": "No"
  },
  {
    "MOLECULE": "Cn1c2ccccc2c(=O)c2c(=O)n(Cc3ccco3)c(COc3ccccc3)nc21",
    "CLASS NAME": "Yes"
  },
  {
    "MOLECULE": "CCOc1ncccc1C(=O)OCc1cn2cc(Cl)ccc2n1",
    "CLASS NAME": "No"
  },
  {
    "MOLECULE": "COc1ccc(CCNC(=O)c2cn(C)c3ccc(S(=O)(=O)N(C)C4CCCCC4)cc3c2=O)cc1OC",
    "CLASS NAME": "No"
  },
  {
    "MOLECULE": "CSc1ccccc1-c1nnc(-c2ccc(Cl)cc2)o1",
    "CLASS NAME": "Yes"
  },
  {
    "MOLECULE": "COc1ccc(C(=O)CSc2nnc(COc3ccccc3)n2Cc2ccco2)cc1",
    "CLASS NAME": "No"
  },
  {
    "MOLECULE": "Cc1ccc(Cn2c(C)c3cnn(CC(=O)NCc4ccccc4)c(=O)c3c2C)cc1",
    "CLASS NAME": "No"
  },
  {
    "MOLECULE": "Cc1ccc(C(=O)OCc2nc(N)nc(Nc3ccccc3C)n2)cc1",
    "CLASS NAME": "No"
  },
  {
    "MOLECULE": "O=C(NCCC1=CCCCC1)c1ccc2c(c1)N(Cc1ccccc1F)C(=O)c1ccccc1S2(=O)=O",
    "CLASS NAME": "No"
  },
  {
    "MOLECULE": "O=c1cc(CSc2ccc(Cl)cc2)nc(N2CCOCC2)[nH]1",
    "CLASS NAME": "No"
  },
  {
    "MOLECULE": "COc1cc(Nc2nc(-c3ccc(OC)c(OC)c3)nc3ccccc23)cc(OC)c1",
    "CLASS NAME": "No"
  },
  {
    "MOLECULE": "COc1ccc(CCNc2nc3c(-c4cccc(F)c4)nnn3c3ccccc23)cc1OC",
    "CLASS NAME": "No"
  },
  {
    "MOLECULE": "COc1cc(C(=O)OCc2ccc([N+](=O)[O-])cc2)cc(OC)c1OC",
    "CLASS NAME": "No"
  },
  {
    "MOLECULE": "Brc1cccc(-c2nnn3c2nc(NC2CCCCC2)c2ccccc23)c1",
    "CLASS NAME": "No"
  }
]
